Record form. Attribute: TGI. Fill in for each entry.
- Tested on: A498 renal
- EXPERIMENT_DESCRIPTION: NCI tumour cell line growth inhibition, 48 h
Answers are plain numbers, in µM.

Parameter requested: TGI. Apply to each item below.
1. COc1nc(C#CCC(C)O)nc(OC)n1 (centres undefined)
2. CC(=O)N/N=C1\NC(=O)C[C@H]2[C@@H]3CC=C4C[C@@H](OC(C)=O)CC[C@]4(C)[C@H]3CC[C@]12C
3. CCCNC(=O)CCC(C)[C@H]1CCC2C3C(C[C@H](OC(C)=O)[C@@]21C)[C@@]1(C)CCC2(C[C@H]1C[C@H]3OC(C)=O)OOC1(CCC(C)CC1)OO2 (some centres undefined)

[77.1, 35.2, 74.5]

###

- Test system: RXF 393 renal
- EXPERIMENT_DESCRIPTION: NCI tumour cell line growth inhibition, 48 h
Record form. Attribute: TGI. Fill in for each entry.

Before answering, review these 2 worked examples.
MOLECULE	TGI
COc1cc(NS(C)(=O)=O)ccc1N1Cc2cnc3ccc4[nH]c(C)cc1c4c23	> 100 µM
O=C(CCCN1CCC2(CC1)CC(=O)N(N1CCOCC1)C2=O)c1ccccc1	> 100 µM

Parameter requested: TGI. Apply to each item below.
1. O=C1C(Cl)=C(Nc2ccccc2)C(=O)c2ccccc21
2. CCOC(=O)c1c(-c2ccc(OC)cc2)c(C#N)c(=S)n(C2OC(COC(C)=O)C(OC(C)=O)C(OC(C)=O)C2OC(C)=O)c1C (centres undefined)
3. COc1cc(C2CC(C)(Nc3ccccc3)Oc3cc4c(cc32)OCO4)cc(OC)c1OC (centres undefined)
4. Cc1cc(Nc2nc(SCc3ccc(C(=O)Nc4ccc(F)cc4N)cc3)nn3cccc23)n[nH]1
5. NC(N)=NS(=O)(=O)c1ccc(NC(=O)c2cccc3c(Nc4ccc(S(N)(=O)=O)cc4)c4ccccc4nc23)cc1
6. NNC(=O)c1ccc[n+](CCc2ccccc2)c1

1: 2.99 µM; 2: > 100 µM; 3: > 100 µM; 4: 13 µM; 5: > 100 µM; 6: > 100 µM

Please report TGI for the following molecule: O=C(NCCN1CCOCC1)c1ccc2cc(C(=O)N3CC(CCl)c4ccc([N+](=O)[O-])cc43)[nH]c2c1 (centres undefined) 20.4 µM

###

- Tested on: 786-0 renal
- EXPERIMENT_DESCRIPTION: NCI tumour cell line growth inhibition, 48 h
MEASURED_METRIC: TGI (µM)
Answers are plain numbers, in µM.

Before answering, review these 5 worked examples.
SMILES_DATA	TGI [µM]
C=C(CN1CCc2ccccc2C1)c1ccc(C(=O)Nc2ccccc2N)cc1	11.6
CC(C)/C(Cl)=N\OC(=O)Nc1ccc(C#N)cc1	11.8
CC(=O)N/N=C1\NC(=O)C[C@H]2[C@@H]3CC=C4C[C@@H](OC(C)=O)CC[C@]4(C)[C@H]3CC[C@]12C	43.1
O=c1cc(N=P(c2ccccc2)(c2ccccc2)c2ccccc2)n(-c2ccccc2)c(=O)n1-c1ccccc1	25.2
Clc1ccc(-c2nn3c(-c4ccncc4)nnc3s2)cc1	61.9

Then there is this molecule:
Please report TGI for the following molecule: O=c1oc(-c2ccc(O)c(O)c2)cc2cccc(O)c12 85.9

###

Record form. Attribute: TGI. Fill in for each entry.
- Test system: T-47D breast
- EXPERIMENT_DESCRIPTION: NCI tumour cell line growth inhibition, 48 h

Before answering, review these 2 worked examples.
SMILES_DATA	TGI
OB1OCc2cc(/C=C/c3cccc(C(F)(F)F)c3)ccc21	> 100 µM
CNC(=O)c1cc2c(Oc3ccc(NC(=O)C4(C(=O)Nc5ccc(F)cc5)CC4)cc3)ccnc2cc1OC	16.3 µM

Then there is this compound:
Please report TGI for the following compound: CC(=O)N/N=C1\NC(=O)C[C@H]2[C@@H]3CC=C4C[C@@H](OC(C)=O)CC[C@]4(C)[C@H]3CC[C@]12C > 100 µM

###

Record form. Attribute: TGI. Fill in for each entry.
- Tested on: MDA-MB-231 breast
- EXPERIMENT_DESCRIPTION: NCI tumour cell line growth inhibition, 48 h

MOLECULE	TGI
COC(=O)c1c2c(cc3c1CC1(C3)Cc3cc4c(c(C(=O)OC)c3C1)CCCC4)CCCC2	> 100 µM
Cc1nn(C(=O)Cc2ccccc2)c2c1C(c1ccc(O)cc1)SC(N)=N2 (stereo not drawn)	> 100 µM

Then there is this molecule:
With MDA-MB-231 breast as the test system, provide measured TGI for this molecule: C=CCn1c(=O)ccn(COCCO)c1=O > 100 µM

###

- Test system: NCI-H23 lung
- EXPERIMENT_DESCRIPTION: NCI tumour cell line growth inhibition, 48 h
MEASURED_METRIC: TGI

Before answering, review these 10 worked examples.
MOLECULE	TGI
CC(=O)N/N=C1\NC(=O)C[C@H]2[C@@H]3CC=C4C[C@@H](OC(C)=O)CC[C@]4(C)[C@H]3CC[C@]12C	> 100 µM
O=C1C=CC(=O)N1Nc1ccc([N+](=O)[O-])cc1[N+](=O)[O-]	> 100 µM
COC(=O)c1c2c(cc3c1CC1(C3)Cc3cc4c(c(C(=O)OC)c3C1)CCCC4)CCCC2	> 100 µM
COc1ccc(CC(C)C(C)Cc2ccc(OC)c(OC)c2)cc1OC (configuration not stated)	> 1400 µM
O=c1c2ccccc2nc2[nH][nH]c(=S)n12	> 100 µM
COc1ccc(Nc2nc3ccccc3nc2-c2cccs2)cc1	> 100 µM
O=C(NC12CC3CC(CC(C3)C1)C2)C(=O)c1c[nH]c2ccc(Cl)cc12	> 100 µM
O=c1ncccn1C1C=C(CO)C(O)C1O (configuration not stated)	> 50 µM
CC/C(=N\NS(=O)(=O)c1ccccc1)c1ccccc1	> 100 µM
O=C1/C(=C\c2cccc(Oc3ccccc3)c2)S(=O)(=O)C(c2ccccc2)N1Cc1ccccc1 (configuration not stated)	> 100 µM

Parameter requested: TGI. Apply to each item below.
1. CNC(=O)c1cc2c(Oc3ccc(NC(=O)C4(C(=O)Nc5ccc(F)cc5)CC4)cc3)ccnc2cc1OC
2. CC1(C)OC2COC3(CNO)OC(C)(C)OC3C2O1 (configuration not stated)

["> 100 µM", "> 100 µM"]

###

Record form. Attribute: log10(TGI). Fill in for each entry.
- Tested on: IGROV1 ovarian
- EXPERIMENT_DESCRIPTION: NCI tumour cell line growth inhibition, 48 h
Units before log transform: µM; reported quantity: TGI; transform: log10.

Before answering, review these 5 worked examples.
COMPOUND	log10(TGI)
O=C/C(=C(/Cl)c1ccc(O)cc1)c1ccccc1	1.82
O=C1c2cc3c(cc2CC1Br)CCC3 (stereo not given)	0.97
O=C(NCCCN(CCCCN(CCCNC(=O)C(F)(F)F)Cc1ccccc1)Cc1ccccc1)C(F)(F)F	1.42
CN(C)Cc1c[nH]c2c(NCCN)c3c(c(NCCN)c12)C(=O)c1ccccc1C3=O	1.02
OC(c1ccc(Br)cc1)(c1cccs1)C1CC1 (stereo not given)	1.63

Parameter requested: log10(TGI). Apply to each item below.
1. O=C(CNc1ccccc1Cl)Nn1c(-c2ccccc2)nc2ccccc2c1=O
2. CCCn1c(CN(Cc2nc3ccccc3n2CCC)Cc2nc3ccccc3n2CCC)nc2ccccc21
3. C[n+]1c2ccccc2cc2c(CNC(CCCN=C(N)N)C(=O)O)cccc21 (stereo not given)
4. O=c1c(Cl)c(Cl)cnn1CCc1ccncc1
5. COc1ccccc1/C=C/C(=O)/C=C/c1ccccc1O
6. CC1CC[C@@]2(OC1)OC1C[C@H]3[C@@H]4CC[C@H]5CC(OC6OC(CO)C(OC7OC(CO)C(O)C(O)C7OC7OC(CO)C(O)C(O)C7O)C(O)C6O)CCC5(C)[C@H]4CCC3(C)C1[C@@H]2C (stereo not given in full)
7. CO[C@]12CC(=O)C3(C(C[C@H]4CC5CC=C6C[C@@H](OC(C)=O)CC[C@]6(OC(C)=O)C5C[C@@]43C)C1)C1C[C@H]3[C@@H]4CC=C5C[C@@H](OC(C)=O)CC[C@]5(OC(C)=O)[C@H]4CC[C@]3(C)C12 (stereo not given in full)

1. 1.88
2. 1.22
3. 1.28
4. 1.53
5. 0.28
6. 0.33
7. 1.63

###

- Tested on: PC-3 prostate
- EXPERIMENT_DESCRIPTION: NCI tumour cell line growth inhibition, 48 h
Record form. Attribute: GI50. Fill in for each entry.

Before answering, review these 3 worked examples.
COMPOUND	REPORTED
CCC1=C[C@@H]2CN(C1)Cc1c([nH]c3ccccc13)[C@@](C(=O)OC)(c1cc3c(cc1OC)N(C)[C@H]1[C@@](O)(C(=O)OC)[C@H](OC(C)=O)[C@]4(CC)[C@@H]5C[C@@H]5CN5CC[C@]31[C@@H]54)C2	< 0.005 µM
O=C(/C=C/c1ccccc1)CC(c1ccccc1)N1CCOCC1 (centres undefined)	4.54 µM
Cc1ncc(C(=O)Nc2ccc(CN3CCN(C)CC3)c(C(F)(F)F)c2)cc1C#Cc1cnc(NC2CC2)c2ncccc12	0.597 µM

Then there is this compound:
Please report GI50 for the following compound: CC(=O)N[C@H](C(=O)N[C@@H](CCCNC(=N)N)C(=O)N[C@@H](CCCCN)C(=O)N[C@@H](CCCNC(=N)N)C(=O)N[C@]1(C)CCCCCC/C=C\CCC[C@@](C)(C(=O)N[C@@H](CCCNC(=N)N)C(=O)N[C@@H](CCC(=O)O)C(=O)N[C@@H](CC(C)C)C(=O)N[C@H](C(=O)N[C@@H](CCC(=O)O)C(N)=O)C(C)C)NC(=O)[C@H](CCC(N)=O)NC(=O)[C@H](CC(C)C)NC(=O)[C@H](CC(C)C)NC(=O)[C@H](CCCNC(=N)N)NC(=O)[C@H](CCCNC(=N)N)NC(=O)[C@H](CC(C)C)NC1=O)C(C)C 8.24 µM

Recorded values, source PubChem BioAssay (NCI).
